# experimentalSystem: Protein RecA (Mycobacterium tuberculosis, UniProt P9WHJ3)
# method: Fluorescence Cell-Free Homogeneous Dose Retest to Identify Inhibitors of RecA-Intein Splicing Activity. [Related pubchem assays (depositor defined):AID2097, AID2223, AID489010, AID492950]
# Assay type: functional
Activity calls are given as the source filed them.
Please state which outcome applies, choosing from T = active, F = inactive

Example cases with answers are listed next.
INSERT INTO assay_data (structuresmilesstring, experimentalsystem, answerlabel) VALUES
  ('CC(C)C(=O)N1CCN(c2nc(-c3ccccc3)c3c(c2C#N)CCCC3)CC1', 'Protein RecA (Mycobacterium tuberculosis, UniProt P9WHJ3)', 'T'),
  ('O=C(OCn1ncc(Cl)c(Cl)c1=O)c1ccc(F)cc1', 'Protein RecA (Mycobacterium tuberculosis, UniProt P9WHJ3)', 'T'),
  ('N#CC(C#N)=NNc1ccc(S(=O)(=O)N2CCCC2)cc1', 'Protein RecA (Mycobacterium tuberculosis, UniProt P9WHJ3)', 'T'),
  ('CCC(CC)C(=O)NCc1ccc2c(c1)cc(C)n2C', 'Protein RecA (Mycobacterium tuberculosis, UniProt P9WHJ3)', 'F'),
  ('O=c1c(Cl)c(Cl)cnn1Cc1ccccc1Cl', 'Protein RecA (Mycobacterium tuberculosis, UniProt P9WHJ3)', 'T'),
  ('CNC(=O)c1nnsc1S(=O)(=O)c1ccc(Cl)cc1', 'Protein RecA (Mycobacterium tuberculosis, UniProt P9WHJ3)', 'T');

Please turn your attention to the following entry.
Recorded call for `Cc1ccccc1N1C(=O)C(Cl)=C(N2CCOCC2)C1=O` ? T

###

Item-by-item account of IC50
# experimentalSystem: Large T antigen (Simian virus 40, UniProt P03070);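 further: Confirmatory-stage PubChem screen for compounds that inhibit SV40 T antigen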
# Sequence (P03070 whole entry): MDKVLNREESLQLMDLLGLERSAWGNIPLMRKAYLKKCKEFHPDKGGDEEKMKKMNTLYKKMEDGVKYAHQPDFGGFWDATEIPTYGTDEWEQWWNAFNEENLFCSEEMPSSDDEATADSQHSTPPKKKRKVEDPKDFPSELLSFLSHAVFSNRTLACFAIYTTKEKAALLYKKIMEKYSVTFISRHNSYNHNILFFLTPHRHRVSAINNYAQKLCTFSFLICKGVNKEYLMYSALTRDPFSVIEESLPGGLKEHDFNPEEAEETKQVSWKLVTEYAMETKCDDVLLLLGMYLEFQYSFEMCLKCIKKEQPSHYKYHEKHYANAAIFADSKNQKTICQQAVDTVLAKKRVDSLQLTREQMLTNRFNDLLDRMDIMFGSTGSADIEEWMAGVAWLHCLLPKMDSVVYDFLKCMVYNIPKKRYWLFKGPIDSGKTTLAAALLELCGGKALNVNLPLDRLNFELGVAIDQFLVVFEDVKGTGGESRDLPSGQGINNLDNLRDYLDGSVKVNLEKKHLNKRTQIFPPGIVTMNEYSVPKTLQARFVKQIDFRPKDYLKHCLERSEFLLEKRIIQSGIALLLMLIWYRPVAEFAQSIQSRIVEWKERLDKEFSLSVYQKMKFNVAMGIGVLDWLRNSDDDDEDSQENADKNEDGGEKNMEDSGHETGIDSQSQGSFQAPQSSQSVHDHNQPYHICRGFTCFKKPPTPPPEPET
# Type: functional, Betapolyomavirus macacae
The source made the active and inactive calls.

Take a look at these entries with their results.
INSERT INTO measurements (compound, result) VALUES
  ('COc1cc(/C=N/N=C(\N)c2nonc2N)ccc1O', '12.2 µM (active)'),
  ('Oc1ccc(-c2csc(Nc3ccccn3)n2)cc1O', '51.7 µM (active)'),
  ('CN(C)c1ccc(NC(=O)C(=O)C2C(=O)Nc3ccccc32)cc1 (configuration not stated)', '25.9 µM (active)');

Turning now to a further record.
Provide the documented IC50 with Large T antigen (Simian virus 40, UniProt P03070) as the system for `O=C1NC(=O)N(CCc2ccc(F)cc2)C(=O)/C1=C/c1ccco1` 12.3 µM (active)

###

# experimentalSystem: Streptokinase A (Streptococcus pyogenes serotype M1, UniProt P10520)
# Sequence (P10520 whole entry): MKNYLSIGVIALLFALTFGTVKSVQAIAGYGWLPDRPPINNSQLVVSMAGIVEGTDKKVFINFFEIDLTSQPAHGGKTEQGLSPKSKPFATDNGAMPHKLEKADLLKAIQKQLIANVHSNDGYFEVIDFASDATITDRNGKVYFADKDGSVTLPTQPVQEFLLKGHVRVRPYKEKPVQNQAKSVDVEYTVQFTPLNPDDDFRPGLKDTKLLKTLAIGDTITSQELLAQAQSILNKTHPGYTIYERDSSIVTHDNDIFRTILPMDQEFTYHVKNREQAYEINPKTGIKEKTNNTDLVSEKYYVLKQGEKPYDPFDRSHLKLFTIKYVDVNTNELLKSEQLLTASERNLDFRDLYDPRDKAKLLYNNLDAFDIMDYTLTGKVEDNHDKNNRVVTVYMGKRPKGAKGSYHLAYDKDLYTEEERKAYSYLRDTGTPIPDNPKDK
# method: viability-normalized secreted streptokinase activity reduction – plasminogen activation absorbance, OD405, dose response (AID 1914);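 further: secreted streptokinase activity via plasminogen activation per viability signal from cell pellet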
# Format: functional, Streptococcus pyogenes M1 GAS
Activity calls are given as the source filed them.
measuredProperty: EC50

Take a look at these entries with their results.
INSERT INTO results (molecule, experimentalsystem, measuredproperty, result) VALUES
  ('CC12CCC(C/C1=N\NC1=NC(=O)/C(=C\c3cccc(Br)c3)S1)C2(C)C (stereo unspecified)', 'Streptokinase A (Streptococcus pyogenes serotype M1, UniProt P10520)', 'EC50', '> 150 µM (not active)'),
  ('O=C1N=C(N/N=C/c2ccccc2O)SC1Cc1ccc(F)cc1 (stereo unspecified)', 'Streptokinase A (Streptococcus pyogenes serotype M1, UniProt P10520)', 'EC50', '> 150 µM (not active)'),
  ('CN1C(=O)/C(=C/c2ccccc2Cl)Sc2ccc(C(=O)NCc3cccnc3)cc21', 'Streptokinase A (Streptococcus pyogenes serotype M1, UniProt P10520)', 'EC50', '> 150 µM (not active)');

Form field: reported EC50 of `Cc1csc2nc(CSc3nc4ccccc4o3)c(Br)n12` > 150 µM (not active)

Form field: reported EC50 of `CC1=NNC(=O)/C1=C\c1cn(-c2ccccc2)nc1-c1ccc(Cl)cc1` 4.83 µM (active)

Form field: reported EC50 of `Oc1c(/C=N/c2cccc3cccnc23)sc2ccccc12` > 150 µM (not active)
